The entries that follow carry Ki values tested on UniProt P19327, drawn from several published reports.
Biological target: UniProt P19327
Sequence (P19327 whole entry): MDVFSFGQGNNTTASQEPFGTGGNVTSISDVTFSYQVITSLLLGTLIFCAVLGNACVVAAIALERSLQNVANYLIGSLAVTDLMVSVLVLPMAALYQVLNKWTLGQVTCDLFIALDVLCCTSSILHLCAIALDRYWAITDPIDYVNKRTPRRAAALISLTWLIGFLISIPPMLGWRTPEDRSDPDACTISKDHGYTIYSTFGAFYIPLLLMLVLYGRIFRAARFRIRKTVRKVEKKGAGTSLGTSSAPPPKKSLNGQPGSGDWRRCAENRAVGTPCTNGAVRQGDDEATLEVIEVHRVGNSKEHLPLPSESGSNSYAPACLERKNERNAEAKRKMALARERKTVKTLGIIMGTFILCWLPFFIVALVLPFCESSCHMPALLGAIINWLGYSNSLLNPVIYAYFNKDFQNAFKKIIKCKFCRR
Quick reminder: number only, in nM, skip the unit.

A selection of reference data follows.
Exercise: Read the entry O=C(c1ccc(F)cc1)N1CCC(CN2CCC(c3noc4cc(F)ccc34)CC2)CC1 and write its reported Ki.
Key: 157

Exercise: Read the entry c1cnc(N2CCC(CNC[C@H]3COc4ccccc4O3)CC2)nc1 and write its reported Ki.
Key: 2.7

Exercise: Read the entry COc1ccc2[nH]cc(C3CCN(CCCCn4c(=O)c(-c5ccc(C)cc5)c5n(c4=O)CCCC5)CC3)c2c1 and write its reported Ki.
Key: 23

Exercise: Read the entry CN1CCc2ccc(OCCCN3CCN(c4cccc5sccc45)CC3)cc2C1=O and write its reported Ki.
Key: 65.2

New cases:
Exercise: Read the entry Cc1sc2nc(SCCCN3CCN(c4ccccc4[N+](=O)[O-])CC3)n(N)c(=O)c2c1C and write its reported Ki.
Key: 1.46

Exercise: Read the entry COc1ccc2[nH]cc(C3CCN(CCCCn4c(=O)c(-c5ccccc5C)c5n(c4=O)CCCC5)CC3)c2c1 and write its reported Ki.
Key: 51.7

Exercise: Read the entry COc1cccc2c1[C@@H]1CCN(CCCCN3C(=O)CC4(CCCC4)CC3=O)C[C@@H]1C2 and write its reported Ki.
Key: 54.5

Exercise: Read the entry COc1ccc2ccoc2c1OCCNC[C@@H]1COc2ccccc2O1 and write its reported Ki.
Key: 11

Exercise: Read the entry COc1ccccc1N1CCN(CCCCNC(=O)[C@@H]2CCC(=O)N2C(=O)C2CCCCC2)CC1 and write its reported Ki.
Key: 17

Exercise: Read the entry O=C1C2CCCN2C(=O)N1CCCCNCCOc1cccc(Br)c1 (stereo not given) and write its reported Ki.
Key: 52

====

The entries that follow carry Ki values tested on 5-hydroxytryptamine receptor 1A (Rattus norvegicus, UniProt P19327), drawn from several published reports.
Target: 5-hydroxytryptamine receptor 1A (Rattus norvegicus, UniProt P19327)
Sequence (P19327 whole entry): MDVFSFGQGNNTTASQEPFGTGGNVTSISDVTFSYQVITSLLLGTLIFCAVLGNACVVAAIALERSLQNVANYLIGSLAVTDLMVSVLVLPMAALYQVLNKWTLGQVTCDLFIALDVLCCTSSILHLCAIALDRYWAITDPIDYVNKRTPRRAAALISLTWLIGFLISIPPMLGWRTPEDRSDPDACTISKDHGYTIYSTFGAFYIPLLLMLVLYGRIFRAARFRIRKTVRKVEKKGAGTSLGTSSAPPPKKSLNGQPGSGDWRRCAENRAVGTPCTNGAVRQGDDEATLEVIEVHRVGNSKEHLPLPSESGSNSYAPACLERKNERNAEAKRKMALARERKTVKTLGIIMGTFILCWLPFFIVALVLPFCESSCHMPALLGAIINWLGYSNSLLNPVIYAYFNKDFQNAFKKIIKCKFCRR
Quick reminder: number only, in nM, skip the unit.

A selection of reference data follows.
Exercise: Read the entry O=c1[nH]c2cc(-c3ccccc3)[nH]c2c(=O)n1CCN1CCN(c2ccccc2Cl)CC1 and write its reported Ki.
Key: 35

Exercise: Read the entry O=C1c2ccccc2S(=O)(=O)N1CCCCN1CCC(c2ccccc2)C1 (stereo unspecified) and write its reported Ki.
Key: 2.7

Exercise: Read the entry O=C1C2CCCCN2C(=O)N1CN1CCN(c2cccc(Cl)c2)CC1 (stereo unspecified) and write its reported Ki.
Key: 57.7

Exercise: Read the entry COc1ccccc1N1CCN(C2CCCC(n3nnc4ccccc43)C2)CC1 (stereo unspecified) and write its reported Ki.
Key: 47

New cases:
Exercise: Read the entry CCCN1CCC=C(c2c[nH]c3ccc(C(=O)OC)cc23)C1 and write its reported Ki.
Key: 214

Exercise: Read the entry Clc1cccc(N2CCN(CCCCCCN3CCN(c4cccc(Cl)c4)CC3)CC2)c1 and write its reported Ki.
Key: 16

====

The entries that follow carry Ki values tested on UniProt:P19327, drawn from several published reports.
Molecular target: UniProt:P19327
Sequence (P19327 whole entry): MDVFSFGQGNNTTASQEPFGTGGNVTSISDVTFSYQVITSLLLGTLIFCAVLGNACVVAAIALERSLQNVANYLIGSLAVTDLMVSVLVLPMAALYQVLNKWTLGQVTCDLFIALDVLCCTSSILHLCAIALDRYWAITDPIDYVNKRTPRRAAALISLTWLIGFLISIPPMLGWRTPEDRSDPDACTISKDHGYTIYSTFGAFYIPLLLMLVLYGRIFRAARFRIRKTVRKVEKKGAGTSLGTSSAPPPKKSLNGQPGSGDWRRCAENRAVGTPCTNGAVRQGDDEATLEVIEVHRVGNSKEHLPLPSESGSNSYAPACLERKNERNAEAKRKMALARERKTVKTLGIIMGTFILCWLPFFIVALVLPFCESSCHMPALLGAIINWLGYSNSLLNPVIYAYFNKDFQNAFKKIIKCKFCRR
Quick reminder: number only, in µM, skip the unit.

A selection of reference data follows.
Exercise: Read the entry CCCN(CCC)C1COc2c(cccc2C(=O)c2ccc(C(F)(F)F)cc2)C1 (stereo unspecified) and write its reported Ki.
Key: 0.0472

Exercise: Read the entry CCCN(CCCON1C(=O)CC2(CCCC2)CC1=O)C1COc2cccc(OC)c2C1 (stereo unspecified) and write its reported Ki.
Key: 0.000501

Exercise: Read the entry O=C(c1ccc(Cl)c(Cl)c1)N1CCC(CNCCc2cccc(F)n2)CC1 and write its reported Ki.
Key: 0.00316

Exercise: Read the entry COc1ccccc1N1CCN(CCN2C(=O)CC(=C(c3ccccc3)c3ccccc3)C2=O)CC1 and write its reported Ki.
Key: 0.286

Exercise: Read the entry Cc1cc(-c2ccoc2)nc(N2CCN(C)CC2)n1 and write its reported Ki.
Key: 0.265

Exercise: Read the entry COc1ccccc1N1CCN(CCCCn2cnc3c(cnc4cc(C)ccc43)c2=O)CC1 and write its reported Ki.
Key: 0.02

Exercise: Read the entry c1ccc(N2CCN(CCCCCCN3CCN(c4ccccc4)CC3)CC2)cc1 and write its reported Ki.
Key: 0.003

Exercise: Read the entry CCCN(CCC)[C@H]1CCc2ccc3[nH]cc(C(=O)C(N)=O)c3c2C1 and write its reported Ki.
Key: 0.049

New cases:
Exercise: Read the entry COc1cccc(OC)c1OCCNC[C@@H]1COc2c(OC)cccc2O1 and write its reported Ki.
Key: 0.123

Exercise: Read the entry O=c1c2ccccc2ncn1CCCCN1CCN(c2cccc(Cl)c2)CC1 and write its reported Ki.
Key: 0.05

Exercise: Read the entry O=C(CCCCCN1CCN(c2ccccn2)CC1)c1ccccc1O and write its reported Ki.
Key: 0.056

====

The entries that follow carry Ki values tested on 5-hydroxytryptamine receptor 1A (Rattus norvegicus, UniProt P19327), drawn from several published reports.

Exercise: Report Ki under test system 5-hydroxytryptamine receptor 1A (Rattus norvegicus, UniProt P19327) for COc1cc2c(cc1OC)C(CCN1CCN(c3cccc4c3OCCO4)CC1)C2 (stereo not given) .
Key: 3.16 nM

Exercise: Report Ki under test system 5-hydroxytryptamine receptor 1A (Rattus norvegicus, UniProt P19327) for COc1ccccc1N1CCN(CCN2C(=O)CC(=C3c4ccccc4-c4ccccc43)C2=O)CC1 .
Key: > 10000 nM

Exercise: Report Ki under test system 5-hydroxytryptamine receptor 1A (Rattus norvegicus, UniProt P19327) for COc1ccccc1N1CCN(CCN2C(=O)C[C@H](NC(=O)CC3CC4CCC3C4)C2=O)CC1 (stereo not given in full) .
Key: 497 nM

Exercise: Report Ki under test system 5-hydroxytryptamine receptor 1A (Rattus norvegicus, UniProt P19327) for Cl.N#Cc1ccccc1N1CCN(CCCN2CC(=O)N3CCCC3C2=O)CC1 (stereo not given) .
Key: 31 nM

Exercise: Report Ki under test system 5-hydroxytryptamine receptor 1A (Rattus norvegicus, UniProt P19327) for O=C1c2ccccc2C(=O)N1CCN1CCN(c2cccc3c2OCCO3)CC1 .
Key: 31.6 nM

Exercise: Report Ki under test system 5-hydroxytryptamine receptor 1A (Rattus norvegicus, UniProt P19327) for CCN(CCCCN1CCC2CCCCC2C1)S(=O)(=O)c1cccc2cccnc12 (stereo not given) .
Key: 1100 nM

Exercise: Report Ki under test system 5-hydroxytryptamine receptor 1A (Rattus norvegicus, UniProt P19327) for O=C1/C(=C/c2ccccc2)c2ccccc2N1CCCN1CCN(c2cccc(Cl)c2)CC1 .
Key: 399 nM

Exercise: Report Ki under test system 5-hydroxytryptamine receptor 1A (Rattus norvegicus, UniProt P19327) for COc1ccc(CCNCCOc2cc(F)cc3c2OC(C)CC3)cc1 (stereo not given) .
Key: 0.188 nM

New cases:
Exercise: Report Ki under test system 5-hydroxytryptamine receptor 1A (Rattus norvegicus, UniProt P19327) for CCc1cc2c(=O)n(N)c(SCCCN3CCN(c4ccccc4OC)CC3)nc2s1 .
Key: 0.19 nM

Exercise: Report Ki under test system 5-hydroxytryptamine receptor 1A (Rattus norvegicus, UniProt P19327) for Clc1ccc(-n2cc(CN3CCN(c4ccccc4)CC3)cn2)cc1 .
Key: 220 nM
